# Tested on: SF-539 CNS
# protocol.details: NCI-60 one-dose screen, 48 h
# experimental.setup: 10 µM unless noted
The panel holds about 83,000 compounds, 20% with a hit somewhere; the sample as a whole holds those more often. Calls of active or inactive are those of the source. Rule for the calls: active = growth percent below 10; inactive = the rest.
Outcome codes: active, inactive

[[record]]
line_notation = "CCCCCCCC(=O)SCC/C=C/[C@@H]1CC(=O)NCc2nc(cs2)C2=N[C@@](C)(CS2)C(=O)N[C@@H](C(C)C)C(=O)N1"
class_assignment = "inactive"

[[record]]
line_notation = "COc1ccc(-c2nn(-c3ccc(NC(=O)Nc4cc(C(F)(F)F)cc(C(F)(F)F)c4)cc3)cc2-c2ccncc2)cc1Cl"
class_assignment = "inactive"

[[record]]
line_notation = "CO[C@H]1/C=C/C=C/C=C/C[C@H](OC(=O)[C@@H](C)NC(=O)C2CCCCC2)[C@H](C)[C@@H](O)/C(C)=C\\CCC2=CC(=O)C=C(NC(=O)C1)C2=O"
class_assignment = "active"

[[record]]
line_notation = "Cc1cc2c(cc1C)N(C(=O)CCl)CCN2C(=O)CCl"
class_assignment = "active"


====

Here the recorded growth is given for each entry.
# Tested on: EKVX NSCLC
# protocol.details: NCI-60 one-dose screen, 48 h (100 = growth as untreated, 0 = no growth, -100 = all killed)
# experimental.setup: 10 µM unless noted
The panel holds about 83,000 compounds, 20% with a hit somewhere; the sample as a whole holds those more often. Active and inactive are the calls of the source. How the source made its calls: active means growth percent below 10; inactive means the rest.
test.readout: growth

[[record]]
compound = "CCOc1cccc(Nc2nc(N)nc3[nH]c4ccc(O)cc4c23)c1"
value_observed = "27.8% (inactive)"

[[record]]
compound = "Cc1cn(-c2cc(C(=O)Nc3cccc(-n4ccc5c(NC(=O)c6ccccc6)nccc54)c3)cc(C(F)(F)F)c2)cn1"
value_observed = "45.6% (inactive)"

[[record]]
compound = "Clc1ccc2c(c1)nnn1c3ncccc3c(Br)c21"
value_observed = "29.2% (inactive)"

[[record]]
compound = "COc1ccc(CNc2nc3ccccc3c3c(=O)c4ccccc4sc23)cc1OC"
value_observed = "84.3% (inactive)"

[[record]]
compound = "C[C@]12CC[C@@H]3c4ccc(O)c(N)c4CC[C@H]3[C@@H]1CC[C@@H]2O"
value_observed = "78.5% (inactive)"

[[record]]
compound = "COC1=C(OC)C(=O)C=CC1=O"
value_observed = "121% (inactive)"

[[record]]
compound = "Cc1cccc(CC(=O)c2ccccc2)n1"
value_observed = "79.2% (inactive)"

[[record]]
compound = "C#CCn1c(-c2cc(OC)c(OC)cc2Br)nc(-c2ccccc2)c1-c1ccccc1"
value_observed = "37.4% (inactive)"

[[record]]
compound = "CCOc1ccc(NC(=O)Nc2cc(C(C)C)ccc2C)cc1"
value_observed = "96.1% (inactive)"

[[record]]
compound = "O=C(Nc1ccc(-n2cc(-c3ccncc3)c(-c3ccc(O)c(Cl)c3)n2)cc1)Nc1ccc(Cl)c(C(F)(F)F)c1"
value_observed = "19.5% (inactive)"

[[record]]
compound = "C=CCn1c(SCC(=O)Nc2ccc(/C(C)=N\\O)cc2)nnc1-c1cc(-c2ccc(OC)cc2)nc2ccccc12"
value_observed = "42.5% (inactive)"

[[record]]
compound = "COc1ccc2c(c1)/C(=C/c1c(-c3cc(OC)c(OC)c(OC)c3Br)nc3sccn13)C(=O)N2"
value_observed = "84.6% (inactive)"

[[record]]
compound = "Cc1ccc(-c2cc(-c3nnc(SCC(=O)c4ccccc4)o3)c3ccccc3n2)cc1"
value_observed = "83.4% (inactive)"

[[record]]
compound = "N#CC(C#N)=C(C#N)c1c[nH]c2ccccc12"
value_observed = "73% (inactive)"

[[record]]
compound = "C#CC(=O)/C=C/CCCCCCC#CC(=O)CCC(=O)C#CCCCCCC/C=C/C(=O)C#C"
value_observed = "25.4% (inactive)"

[[record]]
compound = "CC1(C)N=C(N)N=C(N)N1c1ccc(OCC(=O)Nc2ccccc2)c(Cl)c1"
value_observed = "48.9% (inactive)"

[[record]]
compound = "Cc1cn(-c2nc3c(c(NCc4ccccc4)n2)COCC3)c2cccc(C(N)=O)c12"
value_observed = "85.9% [0.5 µM] (inactive)"

[[record]]
compound = "COc1ccc2c(c1)OC(N)=C(C#N)C2c1ccc(F)cc1 (stereo not given)"
value_observed = "44.8% (inactive)"

[[record]]
compound = "C=C(C)[C@@H]1C/C=C(\\COC(=O)[C@H](OC(C)=O)C(NC(=O)c2ccccc2)c2ccccc2)CC[C@H]2O[C@]2(C)CC/C=C(\\C)CC1 (stereo not given in full)"
value_observed = "64.5% [5 µM] (inactive)"

[[record]]
compound = "COC(=O)c1oc2c(C(C)=O)c(OCCN3CCCCC3)ccc2c1C"
value_observed = "113% (inactive)"

